# System: K. pneumoniae
# assay-remarks: AK assay 384-well format, Prestwick library screening
# Assay type: cell-based, Klebsiella pneumoniae
# reported-conditions: Klebsiella pneumoniae, 3 h; 50 μM final drug concentration; cutoff for positive-scoring molecules 3-fold increase; read-out: AK-based Prestwick Library Screening Results, K. pneumoniae (fold increase in extracellular AK activity)
Counter-ions that a name gives are not always drawn.
measured-property: fold induction at 50 µM
In your answer, state the number alone without any accompanying words.

{"columns": ["compound", "fold induction at 50 µM"],
 "data": [
  ["CCOC(=O)Nc1ccc2c(c1)N(C(=O)CCN1CCOCC1)c1ccccc1S2 [Moricizine hydrochloride]", 0.6],
  ["O=c1oc2ccccc2c(O)c1Cc1c(O)c2ccccc2oc1=O", 1.1],
  ["N[C@@H](Cc1cc(I)c(Oc2ccc(O)c(I)c2)c(I)c1)C(=O)O", 0.9]
]}

For the compound shown here, CC(C)(Oc1ccc(Cl)cc1)C(=O)O , give the reported fold induction at 50 µM.
1.1

Give its fold induction at 50 µM value. Item: O=C(O)CCC(=O)Nc1ccc(S(=O)(=O)Nc2nccs2)cc1
1.1

So what's the measured fold induction at 50 µM for this one? O=c1cc(-c2ccc(O)c(O)c2)oc2cc(O)cc(O)c12
0.5

fold induction at 50 µM for CN(C)CCCO[C@@H]1[C@H]2OC(C)(C)O[C@H]2O[C@@H]1[C@H](O)CO [Amiprilose hydrochloride] ?
0.9

Item CCCCCCCCCCCCCCCC[N+](C)(C)CCN(Cc1ccc(OC)cc1)c1ncccn1 [Thonzonium bromide] has what recorded fold induction at 50 µM?
4.7

Looking for the measured fold induction at 50 µM of O=C(O)c1ccccc1C(=O)Nc1ccc(S(=O)(=O)Nc2nccs2)cc1 , can you help?
1

// lookup fold induction at 50 µM for C=C1C[C@]23C[C@@]1(O)CC[C@H]2[C@@]12C=C[C@H](O)[C@@](C)(C(=O)O1)[C@H]2[C@@H]3C(=O)O
0.5

Requested field: fold induction at 50 µM. Item: CCCCOc1ccc(OCCCN2CCOCC2)cc1 [Pramoxine hydrochloride]
1.1

Tell me the measured fold induction at 50 µM of CC(=O)OCC1=C(C(=O)O)N2C(=O)[C@@H](NC(=O)Cc3cccs3)[C@H]2SC1 [Cephalothin sodium salt] , please.
3.2

* * *

Let's look at some compounds and their measured fold induction at 50 µM.
# Test system: E. coli
# assay-remarks: AK assay 384-well format, Prestwick library screening
# Assay type: cell-based, Escherichia coli
# reported-conditions: Escherichia coli, 3 h; planktonic E. coli; 50 μM final drug concentration; positive cutoff 3-fold increase; read-out: AK-based Prestwick library screening result, E. coli (fold increase in extracellular AK activity)
Structures can show the parent of a compound that is named as a salt.
Just the number.

{"columns": ["compound", "tested-on", "measured-property", "endpoint-result"],
 "data": [
  ["Cc1onc(-c2c(F)cccc2Cl)c1C(=O)N[C@@H]1C(=O)N2[C@@H]1SC(C)(C)[C@@H]2C(=O)O [Flucloxacillin sodium]", "E. coli", "fold induction at 50 µM", 1.3],
  ["[H]/N=C(\\N/C(=N/[H])Nc1ccc(Cl)cc1)NC(C)C [Proguanil hydrochloride]", "E. coli", "fold induction at 50 µM", 0.9],
  ["Cc1c(OCC(F)(F)F)ccnc1C[S+]([O-])c1nc2ccccc2[nH]1 (centres unmarked) [Lansoprazole]", "E. coli", "fold induction at 50 µM", 0.6]
]}

Entry under review: C[C@]1(OC(=O)/C=C/c2ccccc2)C[C@@H](O)[C@]2(O)C=CO[C@@H](O[C@@H]3O[C@H](CO)[C@@H](O)[C@H](O)[C@H]3O)[C@@H]21 [Harpagoside] . Reported fold induction at 50 µM?
0.8

Quick one: fold induction at 50 µM for CC1(C)S[C@@H]2[C@H](NC(=O)[C@H](C(=O)O)c3ccsc3)C(=O)N2[C@H]1C(=O)O [Ticarcillin sodium] ?
12.8

# lookup: fold induction at 50 µM of O=C(CCCN1CCN(c2ccccn2)CC1)c1ccc(F)cc1 [Azaperone]
1.1

Which fold induction at 50 µM value is on record for Cc1nccn1CC1CCc2c(c3ccccc3n2C)C1=O (centres unmarked) [Ondansetron Hydrochloride] ?
0.7

Suppose we examine the compound C=CCOc1ccccc1OCC(O)CNC(C)C (centres unmarked) [Oxprenolol hydrochloride] ; what fold induction at 50 µM value has been reported?
0.7
